# Assay Text: Cytotoxicity in HeLa cells, ATP content measured with the ATPlite kit
# Format: cell-based
# Test Context: human, TOX HELA pCC50
Attribute: CC50 at 3 days

# Compound, Measurement Unit, Limit Qualifier, CC50 at 3 days
records = [
    ("C[C@@H]1CCCCCN1C(=O)c1cc(C2CCC2)n2nc(-c3ccc(N4CC[C@H](C(=O)O)C4)cc3F)cc2n1", "µM", "=", 49),
    ("CCc1cc(C(=O)N2CCCCCC2C)nc2cc(-c3ccc(NC(=O)OCCO)cc3F)nn12 (stereo not drawn)", "µM", ">", 25.1),
    ("CCc1cc(C(=O)N2CCCCC[C@H]2C)nc2cc(-c3ccc(N(C)CC(=O)O)cc3F)nn12", "µM", ">", 100),
    ("CCc1cc(C(=O)N2CCc3ccsc3C2C)nc2cc(-c3ccc(-c4ccc(C(=O)O)cn4)cc3F)nn12 (racemic)", "µM", ">", 100),
    ("CCCC(=O)Nc1ccc(-c2cc3nc(C(=O)N4CCCCCC4C)cc(CC)n3n2)cc1 (stereo not drawn)", "µM", ">", 25.1),
    ("CCc1cc(C(=O)N2CCCCCC2C)nc2cc(C3CCCCC3)nn12 (stereo not drawn)", "µM", "=", 33.1),
    ("C[C@@H]1CCCCCN1C(=O)c1cc(C2(C)CC2)n2nc(-c3ccc(/C=C/C(=O)O)cc3F)cc2n1", "µM", "=", 36.3),
    ("CCc1cc(C(=O)N2CCCCC[C@H]2C)nc2cc(-c3ccc(C(N)=O)cc3F)nn12", "µM", ">", 25.1),
    ("C[C@@H]1CCCCCN1C(=O)c1cc(C2CC2)n2nc(-c3ccc(N4CC[C@H](C(=O)O)C4)cc3F)cc2n1", "µM", "=", 69.2),
    ("CC1CCCCCN1C(=O)c1cc(N(C)C2CCCCC2)n2nc(-c3ccc(NC(=O)C4CC4)cc3)cc2n1 (stereo not drawn)", "µM", ">", 100),
    ("CCc1cc(C(=O)N2CCCCCCC2C)nc2cc(-c3ccc(C(=O)O)cc3F)nn12 (stereo not drawn)", "µM", ">", 25.1),
    ("CCc1cc(C(=O)N2CCCC3(CC=CC3)C2C)nc2cc(-c3ccc(/C=C/C(=O)O)cc3F)nn12 (racemic)", "µM", "=", 42.7),
    ("CCc1cc(C(=O)N2CCCCC[C@H]2C)nc2cc(-c3ccc(N(C)[C@H]4C[C@H](C(=O)O)C4)cc3F)nn12 (racemic)", "µM", "=", 87.1),
    ("CCc1cc(C(=O)N2CCCCCC2C)nc2cc(-c3ccc(NC(=O)CCC(N)=O)cc3F)nn12 (stereo not drawn)", "µM", ">", 25.1),
    ("CCc1cc(C(=O)N2CCCCC2C)nc2cc(-c3ccc(NC(=O)NCC4CCCO4)cc3)nn12 (stereo not drawn)", "µM", ">", 100),
]
